# Method: Human pregnane X receptor (PXR) small molecule agonists, qHTS cell viability counter screen (AID 1346977); also: nearly all actives have a fitted effect of over 50% in size
# Measurement setup: PXR-Luc HepG2 viability, CellTiter-Fluor, 24 h; series mostly up to 92.4 µM
Results filed as inconclusive are left out. The source made the active and inactive calls. Calls follow the shape of the dose curve; as a rule, active = well fitted cell-killing curve with a large enough effect in the repeat runs; inconclusive = weak or mixed curves, or effect the other way; inactive = flat fitted curve, though single readings scatter.
Log the outcome using a class from active, inactive

Take a look at these entries with their results.
INSERT INTO assay_data (compound, category_label) VALUES
  ('COC(=O)Cc1cccc2ccccc12', 'inactive'),
  ('Nc1ccccc1Nc1ccccc1', 'active'),
  ('CCCC(=O)OCc1ccccc1', 'inactive'),
  ('Cc1c(-c2cccnc2)c2ccccc2n1CCCCC(=O)O', 'inactive');

Prompt line: Hi team, can someone confirm the assay call for `NC(=O)c1cc[n+](CC2=C(C(=O)[O-])N3C(=O)[C@@H](NC(=O)Cc4cccs4)[C@H]3SC2)cc1` ?
Response line: inactive

Prompt line: And then `Sc1nc(S)nc(S)n1` , what is it?
Response line: inactive
